Target Under Test: human TLR8 (Homo sapiens (Human))
Sequence (Q9NR97 27-1041): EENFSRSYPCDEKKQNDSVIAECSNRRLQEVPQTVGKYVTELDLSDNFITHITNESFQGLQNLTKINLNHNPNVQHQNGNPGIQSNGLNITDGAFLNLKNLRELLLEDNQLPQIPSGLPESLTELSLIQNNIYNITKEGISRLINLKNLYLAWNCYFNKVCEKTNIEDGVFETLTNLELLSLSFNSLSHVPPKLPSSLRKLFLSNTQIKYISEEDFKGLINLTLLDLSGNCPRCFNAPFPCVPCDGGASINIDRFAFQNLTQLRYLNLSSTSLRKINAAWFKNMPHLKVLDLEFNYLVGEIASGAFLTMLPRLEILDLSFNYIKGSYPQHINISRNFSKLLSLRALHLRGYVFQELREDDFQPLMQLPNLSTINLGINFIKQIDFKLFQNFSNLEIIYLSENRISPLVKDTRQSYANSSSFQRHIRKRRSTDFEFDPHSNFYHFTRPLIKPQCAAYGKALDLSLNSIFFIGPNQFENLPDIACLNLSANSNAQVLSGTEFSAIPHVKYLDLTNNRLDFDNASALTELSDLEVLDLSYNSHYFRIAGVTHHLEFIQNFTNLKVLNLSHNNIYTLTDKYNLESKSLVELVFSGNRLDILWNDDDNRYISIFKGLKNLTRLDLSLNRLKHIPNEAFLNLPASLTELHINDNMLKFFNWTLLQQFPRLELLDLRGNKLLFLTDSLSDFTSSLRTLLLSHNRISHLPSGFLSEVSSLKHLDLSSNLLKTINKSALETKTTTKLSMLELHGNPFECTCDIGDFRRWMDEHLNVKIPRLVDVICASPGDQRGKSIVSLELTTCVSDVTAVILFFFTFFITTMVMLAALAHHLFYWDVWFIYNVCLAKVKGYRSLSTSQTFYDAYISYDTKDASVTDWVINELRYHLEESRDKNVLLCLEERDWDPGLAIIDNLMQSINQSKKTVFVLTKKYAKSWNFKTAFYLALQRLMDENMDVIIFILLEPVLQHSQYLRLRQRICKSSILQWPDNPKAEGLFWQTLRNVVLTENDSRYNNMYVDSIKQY
Experimental Details: TLR8 inhibition reporter assay (HEK-Blue SEAP);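 note: SEAP driven by IFN-β minimal promoter carrying NF-κB and AP-1 sites, compounds dosed 0.05 nM to 50 µM for 22 h, inhibition scaled between agonist-plus-DMSO and reference-inhibitor wells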
Assay Setup: read-out: TLR8 IC50; HEK-Blue cells overexpressing human TLR8, SEAP reporter, R848 15.9 μM
pIC50: −log10 of the molar value.
Think of 8 as a floor: if pIC50 stands on it or above, it is Condition met; beneath it, Condition not met.

[[record]]
compound = "Cc1cc(-c2[nH]c3cc(C)c(C4CCNCC4)nc3c2C(C)C)cc(C)n1 [Example 522]"
group = "Condition not met"

[[record]]
compound = "Cc1c(-c2[nH]c3ccc(C4CCC(NCCC#N)CC4)nc3c2C(C)C)cn2ncnc2c1C (stereo not shown) [Example 432]"
group = "Condition met"

[[record]]
compound = "Cc1cc(-c2[nH]c3ccc(C4CCN(CC(=O)N(C)C)CC4)nc3c2C(C)C)cn2ncnc12 [Example 533]"
group = "Condition met"

[[record]]
compound = "Cc1c(-c2[nH]c3ccc(C4CCC(NCCS(N)(=O)=O)CC4)nc3c2C(C)C)cn2ncnc2c1C (stereo not shown) [Example 446]"
group = "Condition met"

[[record]]
compound = "COc1cc(-c2[nH]c3ccc(CCC4CN(C(=O)CN(C)C)C4)nc3c2C(C)C)cn2ncnc12 [Example 699]"
group = "Condition not met"

[[record]]
compound = "COc1cc(-c2[nH]c3ccc(OC4CCN(CC(C)(C)O)CC4)nc3c2C(C)C)cn2ncnc12 [Example 613]"
group = "Condition met"

[[record]]
compound = "COc1cc(-c2[nH]c3ccc(C4CNCCO4)nc3c2C(C)C)cn2ncnc12 (stereo not shown) [Example 671]"
group = "Condition met"

[[record]]
compound = "CNC(=O)C(C)(C)NC1CCC(c2ccc3[nH]c(-c4cn5ncnc5c(C)c4C)c(C(C)C)c3n2)CC1 (stereo not shown) [Example 487]"
group = "Condition met"

[[record]]
compound = "COc1cc(-c2[nH]c3ccc(OCC4CCN(CC(C)(C)O)CC4)nc3c2C(C)C)cn2ncnc12 [Example 597]"
group = "Condition met"

[[record]]
compound = "COc1cc(-c2[nH]c3ccc(C4CNCCO4)nc3c2C(C)C)cn2ncnc12 (stereo not shown) [Example 676]"
group = "Condition met"

[[record]]
compound = "CCCN1CCC(COc2ccc3[nH]c(-c4cc(OC)c5ncnn5c4)c(C(C)C)c3n2)CC1 [Example 606]"
group = "Condition met"

[[record]]
compound = "Cc1c(-c2[nH]c3ccc(C4CCC(NC5CCOCC5)CC4)nc3c2C(C)C)cn2ncnc2c1C (stereo not shown) [Example 453]"
group = "Condition met"

[[record]]
compound = "Cc1c(-c2[nH]c3ccc(C4CCC(N(CC#N)CC5(S(C)(=O)=O)CC5)CC4)nc3c2C(C)C)cn2ncnc2c1C (stereo not shown) [Example 475]"
group = "Condition met"

[[record]]
compound = "COc1cc(-c2[nH]c3ccc(C4CCN(CC(N)=O)CC4)nc3c2C(C)C)cn2ncnc12 [Example 558]"
group = "Condition met"

[[record]]
compound = "Cc1c(-c2[nH]c3ccc(C4CCN(C5COC5)CC4)nc3c2C(C)C)cn(C)c(=O)c1Cl [Example 566]"
group = "Condition not met"

[[record]]
compound = "COc1cc(-c2[nH]c3ccc(CCC4CN(C5COC5)C4)nc3c2C(C)C)cn2ncnc12 [Example 700]"
group = "Condition not met"

[[record]]
compound = "Cc1c(-c2[nH]c3ccc(C4CCN(CC(C)(C)O)CC4)nc3c2C(C)C)cn2ncnc2c1C [Example 541]"
group = "Condition met"

[[record]]
compound = "COc1cc(-c2[nH]c3ccc(C4CCC(N(CC#N)CC#N)C4)nc3c2C(C)C)cn2ncnc12 (stereo not shown) [Example 730]"
group = "Condition not met"

[[record]]
compound = "COCCN(C1CCC(c2ccc3[nH]c(-c4cn5ncnc5c(C)c4C)c(C(C)C)c3n2)CC1)C1(CO)COC1 (stereo not shown) [Example 500]"
group = "Condition not met"

[[record]]
compound = "Cc1c(-c2[nH]c3ccc(CCC4CN(CCS(C)(=O)=O)C4)nc3c2C(C)C)cn2ncnc2c1C [Example 695]"
group = "Condition not met"

